The origin of these recorded values is patent US20220339160A1.

Target: A2A receptor (Homo sapiens, UniProt P29274)
Sequence (P29274 whole entry): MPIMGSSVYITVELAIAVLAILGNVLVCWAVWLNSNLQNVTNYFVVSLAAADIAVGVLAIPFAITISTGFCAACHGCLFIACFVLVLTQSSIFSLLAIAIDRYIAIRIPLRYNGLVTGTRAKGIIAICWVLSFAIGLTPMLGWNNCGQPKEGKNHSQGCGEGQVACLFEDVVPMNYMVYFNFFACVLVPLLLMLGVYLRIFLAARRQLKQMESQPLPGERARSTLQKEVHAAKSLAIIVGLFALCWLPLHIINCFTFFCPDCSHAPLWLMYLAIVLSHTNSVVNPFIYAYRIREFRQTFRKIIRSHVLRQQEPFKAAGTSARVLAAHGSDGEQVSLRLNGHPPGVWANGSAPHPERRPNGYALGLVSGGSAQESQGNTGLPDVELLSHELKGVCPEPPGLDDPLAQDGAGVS
Assay: A2A receptor antagonist functional assay (cAMP, A2A cell line)
Assay type: cell-based
Conditions: read-out: A2A Antagonistic function IC50
Measure Name: pIC50
pIC50 (log units): -log10 of the concentration in mol/L.

GET /values?readout=pIC50&item= COCCOCc1cccc(Cc2cnn3c(-c4ccc(C)o4)nc(N)nc23)n1
8.15

###

Target: A2A receptor (Homo sapiens)
Experiment: A2A receptor antagonist functional assay (cAMP, A2A cell line)
Type: cell-based
Measure Name: pIC50
Interpret pIC50 as the negative base-10 log of the concentration measured in mol/L.

INSERT INTO results (compound, measure_name, experimental_result) VALUES
  ('Cc1ccc(-c2nc(N)nc3c(CC4CCC4)cnn23)o1 [Compound 15]', 'pIC50', 7.80),
  ('Cc1ccc(-c2nc(N)nc3c(Cc4ccc(N)c(C)c4)cnn23)o1 [Compound 29]', 'pIC50', 8.26),
  ('Cc1ccc(-c2nc(N)nc3c(Cc4cccc(C(C)(C)O)n4)cnn23)o1 [Compound 19]', 'pIC50', 8.77),
  ('Cc1ccc(-c2nc(N)nc3c(Cc4cccc(N)c4)c(Cl)nn23)o1 [Compound 46]', 'pIC50', 8.82);

Could you share what pIC50 was measured for Cc1ccc(-c2nc(N)nc3c(Cc4cccc(CBr)n4)cnn23)o1 [Compound 6] , tested on A2A receptor (Homo sapiens)?
7.99

###

In this section we review reported pIC50 values for a set of compounds.
Biological target: A2B receptor (Homo sapiens, UniProt P29275)
Sequence (P29275 1-332): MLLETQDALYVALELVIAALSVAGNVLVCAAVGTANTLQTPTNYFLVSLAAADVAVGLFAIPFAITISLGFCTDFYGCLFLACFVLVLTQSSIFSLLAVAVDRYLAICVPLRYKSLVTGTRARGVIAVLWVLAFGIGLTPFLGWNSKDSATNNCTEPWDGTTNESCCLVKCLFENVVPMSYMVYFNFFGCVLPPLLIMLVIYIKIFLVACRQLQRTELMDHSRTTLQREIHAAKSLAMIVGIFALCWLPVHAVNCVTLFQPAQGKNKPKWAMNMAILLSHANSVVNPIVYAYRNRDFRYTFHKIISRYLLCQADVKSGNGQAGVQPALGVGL
Experiment: cell-based
Note on pIC50: it is the negative log10 of concentration, concentration in mol/L.

INSERT INTO assay_data (compound, measured_on, measure_name, experimental_result) VALUES
  ('COCCOCc1cccc(Cc2cnn3c(-c4ccc(C)o4)nc(N)nc23)n1 [Compound 7]', 'A2B receptor (Homo sapiens, UniProt P29275)', 'pIC50', 6.99);

Field: pIC50 (A2B receptor (Homo sapiens, UniProt P29275)). Entry: Cc1ccc(-c2nc(N)nc3c(Cc4cccc(NCc5ccccc5)n4)cnn23)o1 [Compound 20]
7.59

Lookup COCc1cccc(Cc2cnn3c(-c4ccc(C)o4)nc(N)nc23)n1 [Compound 2]
7.60

Another compound to look at: Cc1ccc(-c2nc(N)nc3c(Cc4cccc(CO)n4)cnn23)o1 [Compound 5]
7.78

Same question for Cc1ccc(-c2nc(N)nc3c(Cc4cccc(C(C)(C)O)n4)cnn23)o1 [Compound 19] please.
7.15

How about this compound: Cc1ccc(-c2nc(N)nc3c(Cc4ccc(F)cc4)cnn23)o1 [Compound 1]
7.80

Entry Cc1ccc(-c2nc(N)nc3c(Cc4cccc(CO[C@H]5CCOC5)n4)cnn23)o1 [Compound 18] please
6.97
